- Tested on: antibodies in sera from SARS patients (sera 1a, 1b, 2, 6, 37, 62, London, SARS-yellow, SARS-green)
- Assay type: binding, human
ENDPOINT NAME: Binding of serum 2 to linear peptide (PEPSCAN-ELISA)

Give its Binding of serum 2 to linear peptide (PEPSCAN-ELISA) value. Item: SGGGETALALLLLDR
0.2

====

Rabbit serum linear peptides: recorded values
- System: rabbit serum obtained by immunizing a rabbit with the SARS-CoV strain Frankfurt 1
- Format: binding
- Design: unit not given here
The answer should be a number; do not append a unit.

Worked cases, Rabbit serum linear peptides given:
{"POLYMER SEQUENCE": "VYRINWVTGGIAIAM", "Rabbit serum linear peptides": 0.3}
{"POLYMER SEQUENCE": "GHQTAAFRDVLVVLN", "Rabbit serum linear peptides": 0.1}
{"POLYMER SEQUENCE": "IIKLVFLWLLWPVTL", "Rabbit serum linear peptides": 0.1}
{"POLYMER SEQUENCE": "STHFAFACADGTRHT", "Rabbit serum linear peptides": 0.4}
{"POLYMER SEQUENCE": "ELVIGAVIIRGHLRM", "Rabbit serum linear peptides": 0.8}

Consider the record given below.
Give its Rabbit serum linear peptides value. Item: RIGNYKLNTDHAGSN
0.1

====

- Test system: antibodies in sera from SARS patients (sera 1a, 1b, 2, 6, 37, 62, London, SARS-yellow, SARS-green)
- Type: binding, human
- Set-up: unit not given here
ENDPOINT NAME: Binding of serum SARS-green to looped/cyclic peptides of protein N of SARS-CoV Urbani
The answer should be a number; do not append a unit.

{"POLYMER SEQUENCE": "PQIAQFAPSASAFFG", "VAL": 0.4}
{"POLYMER SEQUENCE": "NGGRNGARPKQRRPQ", "VAL": 0.4}
{"POLYMER SEQUENCE": "TPKDHIGTRNPNNNA", "VAL": 0.3}
{"POLYMER SEQUENCE": "FAPSASAFFGMSRIG", "VAL": 0.0}
{"POLYMER SEQUENCE": "ASAFFGMSRIGMEVT", "VAL": 0.3}

Give its Binding of serum SARS-green to looped/cyclic peptides of protein N of SARS-CoV Urbani value. Item: RQGTDYKHWPQIAQF
0.4

Give its Binding of serum SARS-green to looped/cyclic peptides of protein N of SARS-CoV Urbani value. Item: RVRGGDGKMKELSPR
0.1

Give its Binding of serum SARS-green to looped/cyclic peptides of protein N of SARS-CoV Urbani value. Item: PKDHIGTRNPNNNAA
0.2

Give its Binding of serum SARS-green to looped/cyclic peptides of protein N of SARS-CoV Urbani value. Item: TPSGTWLTYHGAIKL
0.3

Give its Binding of serum SARS-green to looped/cyclic peptides of protein N of SARS-CoV Urbani value. Item: FYYLGTGPEASLPYG
0.4

Give its Binding of serum SARS-green to looped/cyclic peptides of protein N of SARS-CoV Urbani value. Item: AIKLDDKDPQFKDNV
0.4

Give its Binding of serum SARS-green to looped/cyclic peptides of protein N of SARS-CoV Urbani value. Item: PAADMDDFSRQLQNS
0.3

Give its Binding of serum SARS-green to looped/cyclic peptides of protein N of SARS-CoV Urbani value. Item: ALTQHGKEELRFPRG
0.1

Give its Binding of serum SARS-green to looped/cyclic peptides of protein N of SARS-CoV Urbani value. Item: YFYYLGTGPEASLPY
0.4

Give its Binding of serum SARS-green to looped/cyclic peptides of protein N of SARS-CoV Urbani value. Item: YKHWPQIAQFAPSAS
0.4

Give its Binding of serum SARS-green to looped/cyclic peptides of protein N of SARS-CoV Urbani value. Item: VTQAFGRRGPEQTQG
0.2

Give its Binding of serum SARS-green to looped/cyclic peptides of protein N of SARS-CoV Urbani value. Item: TFPPTEPKKDKKKKT
0.1

Give its Binding of serum SARS-green to looped/cyclic peptides of protein N of SARS-CoV Urbani value. Item: QIAQFAPSASAFFGM
0.5

Give its Binding of serum SARS-green to looped/cyclic peptides of protein N of SARS-CoV Urbani value. Item: RFPRGQGVPINTNSG
0.5

Give its Binding of serum SARS-green to looped/cyclic peptides of protein N of SARS-CoV Urbani value. Item: LLNKHIDAYKTFPPT
0.3

Give its Binding of serum SARS-green to looped/cyclic peptides of protein N of SARS-CoV Urbani value. Item: GTGPEASLPYGANKE
0.2

====

- System: antibodies in sera from SARS patients (sera 1a, 1b, 2, 6, 37, 62, London, SARS-yellow, SARS-green)
- Type: binding, human
ENDPOINT NAME: Binding of serum SARS-green to linear peptides of protein X3 of SARS-CoV Urbani
The answer should be a number; do not append a unit.

Worked cases, Binding of serum SARS-green to linear peptides of protein X3 of SARS-CoV Urbani given:
{"POLYMER SEQUENCE": "RIAIWNLDVIISSIV", "VAL": 0.3}
{"POLYMER SEQUENCE": "NLDVIISSIVRQLFK", "VAL": 0.3}

Give its Binding of serum SARS-green to linear peptides of protein X3 of SARS-CoV Urbani value. Item: WNLDVIISSIVRQLF
0.2

Give its Binding of serum SARS-green to linear peptides of protein X3 of SARS-CoV Urbani value. Item: QVTIAEILIIIMRTF
0.4

====

- Test system: antibodies in sera from SARS patients (sera 1a, 1b, 2, 6, 37, 62, London, SARS-yellow, SARS-green)
- Type: binding, human
ENDPOINT NAME: Binding of serum 1b to looped/cyclic peptide (PEPSCAN-ELISA)

{"POLYMER SEQUENCE": "FLYLYALIYFLQCIN", "VAL": 0.3}
{"POLYMER SEQUENCE": "TATIPLQASLPFGWL", "VAL": 0.6}
{"POLYMER SEQUENCE": "ASLPFGWLVIGVAFL", "VAL": 0.3}
{"POLYMER SEQUENCE": "LYALIYFLQCINACR", "VAL": 0.3}

Give its Binding of serum 1b to looped/cyclic peptide (PEPSCAN-ELISA) value. Item: YLYALIYFLQCINAC
0.2

====

- Test system: rabbit serum obtained by immunizing a rabbit with the SARS-CoV strain Frankfurt 1
- Assay type: binding
- Set-up: unit not given here
Binding of a rabbit serum to looped peptides: recorded values
The answer should be a number; do not append a unit.

{"POLYMER SEQUENCE": "CWKCKSKNPLLYDAN", "VAL": 0.5}
{"POLYMER SEQUENCE": "NVQIHTIDGSSGVAN", "VAL": 0.3}
{"POLYMER SEQUENCE": "TFFIFNKLVKDPPNV", "VAL": 0.5}
{"POLYMER SEQUENCE": "LLFVTIYSHLLLVAA", "VAL": 0.5}
{"POLYMER SEQUENCE": "YLYALIYFLQCINAC", "VAL": 0.4}
{"POLYMER SEQUENCE": "FTLGSITAQPVKIDN", "VAL": 0.8}
{"POLYMER SEQUENCE": "IGVAFLAVFQSATKI", "VAL": 0.6}
{"POLYMER SEQUENCE": "YDANYFVCWHTHNYD", "VAL": 0.4}

Consider the record given below.
Give its Binding of a rabbit serum to looped peptides value. Item: LRIGTQVLKTMSLYM
0.4

====

- Test system: antibodies in sera from SARS patients (sera 1a, 1b, 2, 6, 37, 62, London, SARS-yellow, SARS-green)
- Type: binding, human
Binding of serum SARS-yellow to looped/cyclic peptides of protein X5 of SARS-CoV Urbani: recorded values
The answer should be a number; do not append a unit.

{"POLYMER SEQUENCE": "LKILVRYNTRGNTYS", "VAL": 0.8}

Give its Binding of serum SARS-yellow to looped/cyclic peptides of protein X5 of SARS-CoV Urbani value. Item: LCALGKVLPFHRWHT
0.4

Give its Binding of serum SARS-yellow to looped/cyclic peptides of protein X5 of SARS-CoV Urbani value. Item: ILVRYNTRGNTYSTA
0.8

Give its Binding of serum SARS-yellow to looped/cyclic peptides of protein X5 of SARS-CoV Urbani value. Item: LVRYNTRGNTYSTAW
0.5

Give its Binding of serum SARS-yellow to looped/cyclic peptides of protein X5 of SARS-CoV Urbani value. Item: GNTYSTAWLCALGKV
0.5

====

Binding of serum London to looped/cyclic peptides of protein X4 of SARS-CoV Urbani: recorded values
- Tested on: antibodies in sera from SARS patients (sera 1a, 1b, 2, 6, 37, 62, London, SARS-yellow, SARS-green)
- Type: binding, human

Worked cases, Binding of serum London to looped/cyclic peptides of protein X4 of SARS-CoV Urbani given:
{"POLYMER SEQUENCE": "KEPCPSGTYEGNSPF", "VAL": 0.3}
{"POLYMER SEQUENCE": "FACADGTRHTYQLRA", "VAL": 0.4}

Consider the record given below.
Give its Binding of serum London to looped/cyclic peptides of protein X4 of SARS-CoV Urbani value. Item: QLRARSVSPKLFIRQ
0.4
